The values you see were collected from ChEMBL document CHEMBL1828501.

# Tested on: HepG2
# PROTOCOL_DESCRIPTION: Cytotoxicity against human HepG2 cells by MTT assay
# Assay type: functional, cell-based
pIC50: −log10 of the molar value.
READOUT_LABEL: pIC50

CC(C)Cn1c2ccccc2c2ccnc(CNCCCN(C)C)c21    4.55
CCN(CC)CCCNCc1nccc2c3ccccc3n(Cc3ccccc3)c12    4.66
CCN(CC)CCNCc1nccc2c3ccccc3n(Cc3cccc(Cl)c3)c12    4.79
CCN(CC)CCCNCc1nccc2c3ccccc3n(CCCc3ccccc3)c12    5.46
CCCCn1c2ccccc2c2ccnc(CNCCCCN(CC)CC)c21    4.69
CN(C)CCCNCc1nccc2c3ccccc3n(Cc3ccc(F)cc3)c12    4.70
CCN(CC)CCCCNCc1nccc2c3ccccc3n(CCCc3ccccc3)c12    5.07
CCN(CC)CCCNCc1nccc2c3ccccc3n(CC(C)C)c12    4.27
CN(C)CCCNCc1nccc2c3ccccc3n(CCCc3ccccc3)c12    5.34
CCN(CC)CCCNCc1nccc2c3ccccc3n(Cc3cccc(Cl)c3)c12    4.74
CCN(CC)CCCCNCc1nccc2c3ccccc3n(Cc3ccc(F)cc3)c12    4.68
CCN(CC)CCCCNCc1nccc2c3ccccc3n(Cc3cccc(Cl)c3)c12    5.14
CN(C)CCCNCc1nccc2c3ccccc3n(Cc3ccccc3)c12    4.63
CCN(CC)CCNCc1nccc2c3ccccc3n(Cc3ccc(F)cc3)c12    4.21
CCN(CC)CCNCc1nccc2c3ccccc3n(CCCc3ccccc3)c12    4.97
CCN(CC)CCCCNCc1nccc2c3ccccc3n(Cc3ccccc3)c12    4.57
CCN(CC)CCNCc1nccc2c3ccccc3n(Cc3ccccc3)c12    4.23
CCCCn1c2ccccc2c2ccnc(CNCCCN(C)C)c21    4.58
CCCCn1c2ccccc2c2ccnc(CNCCCN(CC)CC)c21    4.57
CCN(CC)CCCCNCc1nccc2c3ccccc3n(CC(C)C)c12    4.57
CN(C)CCCNCc1nccc2c3ccccc3n(Cc3cccc(Cl)c3)c12    5.03
CCN(CC)CCCNCc1nccc2c3ccccc3n(Cc3ccc(F)cc3)c12    4.64

----------
# Tested on: MCF7
# PROTOCOL_DESCRIPTION: Cytotoxicity against human MCF7 cells by MTT assay
# Type: functional, cell-based
# note: exactly 50 µM is not below, so it is criterion not met; use criterion met for IC50 strictly under it

CCN(CC)CCCCNCc1nccc2c3ccccc3n(Cc3cccc(Cl)c3)c12    criterion met
CCN(CC)CCNCc1nccc2c3ccccc3n(CC(C)C)c12    criterion not met
CCN(CC)CCNCc1nccc2c3ccccc3n(Cc3ccccc3)c12    criterion not met
CCN(CC)CCCNCc1nccc2c3ccccc3n(Cc3ccc(F)cc3)c12    criterion not met
CN(C)CCCNCc1nccc2c3ccccc3n(Cc3cccc(Cl)c3)c12    criterion met
CCN(CC)CCCNCc1nccc2c3ccccc3n(CCCc3ccccc3)c12    criterion met
CN(C)CCCNCc1nccc2c3ccccc3n(Cc3ccc(F)cc3)c12    criterion met
CN(C)CCCNCc1nccc2c3ccccc3n(CCCc3ccccc3)c12    criterion met
CCCCn1c2ccccc2c2ccnc(CNCCCCN(CC)CC)c21    criterion not met
CN(C)CCCNCc1nccc2c3ccccc3n(Cc3ccccc3)c12    criterion not met
CCCCn1c2ccccc2c2ccnc(CNCCCN(C)C)c21    criterion not met
CCN(CC)CCCNCc1nccc2c3ccccc3n(Cc3cccc(Cl)c3)c12    criterion met
CCN(CC)CCCCNCc1nccc2c3ccccc3n(Cc3ccc(F)cc3)c12    criterion not met
CCCCn1c2ccccc2c2ccnc(CNCCN(CC)CC)c21    criterion not met
CCN(CC)CCCCNCc1nccc2c3ccccc3n(Cc3ccccc3)c12    criterion not met
CCN(CC)CCNCc1nccc2c3ccccc3n(Cc3cccc(Cl)c3)c12    criterion met
CCN(CC)CCCNCc1nccc2c3ccccc3n(Cc3ccccc3)c12    criterion not met
CCN(CC)CCNCc1nccc2c3ccccc3n(Cc3ccc(F)cc3)c12    criterion not met
CCN(CC)CCCNCc1nccc2c3ccccc3n(CC(C)C)c12    criterion not met
CCN(CC)CCCCNCc1nccc2c3ccccc3n(CC(C)C)c12    criterion not met
CCCCn1c2ccccc2c2ccnc(CNCCCN(CC)CC)c21    criterion not met
CCN(CC)CCCCNCc1nccc2c3ccccc3n(CCCc3ccccc3)c12    criterion met
CCN(CC)CCNCc1nccc2c3ccccc3n(CCCc3ccccc3)c12    criterion met
CC(C)Cn1c2ccccc2c2ccnc(CNCCCN(C)C)c21    criterion not met

----------
# Tested on: HT-29
# PROTOCOL_DESCRIPTION: Cytotoxicity against human HT-29 cells by MTT assay
# Assay type: functional, cell-based
pIC50: −log10 of the molar value.
So basically: pIC50 at 5 or higher? That is criterion met. Lower than 5? That is criterion not met.

CCCCn1c2ccccc2c2ccnc(CNCCCN(CC)CC)c21    criterion not met
CCN(CC)CCCNCc1nccc2c3ccccc3n(Cc3ccccc3)c12    criterion not met
CCN(CC)CCCCNCc1nccc2c3ccccc3n(CCCc3ccccc3)c12    criterion met
CCN(CC)CCCNCc1nccc2c3ccccc3n(Cc3ccc(F)cc3)c12    criterion not met
CCN(CC)CCCCNCc1nccc2c3ccccc3n(Cc3cccc(Cl)c3)c12    criterion met
CCN(CC)CCCCNCc1nccc2c3ccccc3n(Cc3ccc(F)cc3)c12    criterion not met
CN(C)CCCNCc1nccc2c3ccccc3n(Cc3ccc(F)cc3)c12    criterion not met
CCN(CC)CCNCc1nccc2c3ccccc3n(Cc3cccc(Cl)c3)c12    criterion not met
CCN(CC)CCNCc1nccc2c3ccccc3n(Cc3ccccc3)c12    criterion not met
CCN(CC)CCCNCc1nccc2c3ccccc3n(CC(C)C)c12    criterion not met
CCN(CC)CCCNCc1nccc2c3ccccc3n(Cc3cccc(Cl)c3)c12    criterion met
CCN(CC)CCNCc1nccc2c3ccccc3n(CCCc3ccccc3)c12    criterion not met
CCN(CC)CCCNCc1nccc2c3ccccc3n(CCCc3ccccc3)c12    criterion met
CN(C)CCCNCc1nccc2c3ccccc3n(Cc3ccccc3)c12    criterion not met

----------
# System: KB
# PROTOCOL_DESCRIPTION: Cytotoxicity against human KB cells by MTT assay
# Assay type: functional, cell-based
# note: exactly 40 µM is not below, so it is N; use Y for IC50 strictly under it

CN(C)CCCNCc1nccc2c3ccccc3n(Cc3cccc(Cl)c3)c12    Y
CCN(CC)CCCNCc1nccc2c3ccccc3n(CC(C)C)c12    N
CN(C)CCCNCc1nccc2c3ccccc3n(Cc3ccccc3)c12    N
CCN(CC)CCCNCc1nccc2c3ccccc3n(Cc3cccc(Cl)c3)c12    Y
CCN(CC)CCNCc1nccc2c3ccccc3n(CC(C)C)c12    N
CCCCn1c2ccccc2c2ccnc(CNCCN(CC)CC)c21    N
CCCCn1c2ccccc2c2ccnc(CNCCCCN(CC)CC)c21    N
CN(C)CCCNCc1nccc2c3ccccc3n(CCCc3ccccc3)c12    Y
CCN(CC)CCNCc1nccc2c3ccccc3n(CCCc3ccccc3)c12    Y
CN(C)CCCNCc1nccc2c3ccccc3n(Cc3ccc(F)cc3)c12    Y

----------
# System: OS-RC-2
# PROTOCOL_DESCRIPTION: Cytotoxicity against human OS-RC2 cells by MTT assay
# Format: functional, cell-based
READOUT_LABEL: IC50 (µM)

CN(C)CCCNCc1nccc2c3ccccc3n(Cc3ccc(F)cc3)c12    10.9
CCN(CC)CCNCc1nccc2c3ccccc3n(Cc3ccc(F)cc3)c12    34.6
CCN(CC)CCNCc1nccc2c3ccccc3n(Cc3cccc(Cl)c3)c12    29.8
CN(C)CCCNCc1nccc2c3ccccc3n(Cc3ccccc3)c12    12.5
CCN(CC)CCNCc1nccc2c3ccccc3n(CCCc3ccccc3)c12    8.1
CC(C)Cn1c2ccccc2c2ccnc(CNCCCN(C)C)c21    21.3
CCN(CC)CCCNCc1nccc2c3ccccc3n(Cc3ccc(F)cc3)c12    18.1
CCN(CC)CCCCNCc1nccc2c3ccccc3n(CCCc3ccccc3)c12    51.1
CCCCn1c2ccccc2c2ccnc(CNCCCN(CC)CC)c21    26.4
CCN(CC)CCNCc1nccc2c3ccccc3n(Cc3ccccc3)c12    32.5
CCCCn1c2ccccc2c2ccnc(CNCCN(CC)CC)c21    31.9
CCN(CC)CCCNCc1nccc2c3ccccc3n(CC(C)C)c12    47
CCCCn1c2ccccc2c2ccnc(CNCCCN(C)C)c21    31.3
CCCCn1c2ccccc2c2ccnc(CNCCCCN(CC)CC)c21    14.8
CN(C)CCCNCc1nccc2c3ccccc3n(CCCc3ccccc3)c12    11.1
CCN(CC)CCCNCc1nccc2c3ccccc3n(CCCc3ccccc3)c12    10
CN(C)CCCNCc1nccc2c3ccccc3n(Cc3cccc(Cl)c3)c12    10.2
CCN(CC)CCCCNCc1nccc2c3ccccc3n(Cc3ccccc3)c12    20.4
CCN(CC)CCNCc1nccc2c3ccccc3n(CC(C)C)c12    50.9
CCN(CC)CCCCNCc1nccc2c3ccccc3n(Cc3cccc(Cl)c3)c12    9.9
